- System: Human alphaherpesvirus 2
- method: Relative potency to that of YAGAVVNDL against Herpes Simplex Virus type 2 ribonucleotide reductase
Starred links: 1 amine or outer side, 2 acyl side, 3 side chain; linkers in the order of their positions; H or OH if unused. Non-standard residues stand in square brackets, D forms with d. Residues, ends and D or L forms follow the SMILES beside them. X3 = O=C([C@H](Cc1ccc(O)cc1)N(Cc1ccsc1)[*:1])[*:2]; tBuAla = CC(C)(C)C[C@H](N)C(=O)O; αMeL = CC(C)C[C@](C)(N)C(=O)O
# note: boundary value 5 maps to not met; Relative potency below it maps to met

[
  {
    "molecule": "CC(C)C[C@H](NC(=O)[C@H](CC(=O)O)NC(=O)[C@H](CC(=O)N(C)C)NC(=O)[C@@H](NC(=O)[C@@H](NC(=O)[C@@H](N)Cc1ccc(O)cc1)C(C)C)C(C)C)C(=O)O (H-YVVD(NMe2)DL-OH)",
    "labelValue": "not met"
  },
  {
    "molecule": "CC(C)C[C@H](NC(=O)[C@H](CC(=O)O)NC(=O)[C@H](CC(N)=O)NC(=O)[C@@H](NC(=O)[C@@H](NC(=O)N(Cc1ccccc1)Cc1ccccc1)C(C)C)C(C)C)C(=O)O",
    "labelValue": "met"
  },
  {
    "molecule": "CC(C)C[C@](C)(NC(=O)[C@H](CC(=O)O)NC(=O)[C@H](CC(N)=O)NC(=O)[C@@H](NC(=O)[C@@H](NC(=O)[C@@H](N)Cc1ccc(O)cc1)C(C)C)C(C)C)C(=O)O (H-YVVND[αMeL]-OH)",
    "labelValue": "met"
  },
  {
    "molecule": "CC(C)C[C@H](NC(=O)[C@H](CC(=O)O)NC(=O)[C@H](CC(N)=O)NC(=O)[C@@H](NC(=O)[C@@H](NC(=O)C(Cc1ccccc1)Cc1ccc(O)cc1)C(C)C)C(C)C)C(=O)O (stereo in doubt; form 2)",
    "labelValue": "not met"
  },
  {
    "molecule": "CC(C)[C@H](NC(=O)[C@@H](NC(=O)[C@@H](N)Cc1ccc(O)cc1)C(C)C)C(=O)N[C@@H](CC(=O)N(C)C)C(=O)N[C@@H](CC(=O)O)C(=O)N[C@@H](CC(C)(C)C)C(=O)O (H-YVVD(NMe2)D[tBuAla]-OH)",
    "labelValue": "not met"
  },
  {
    "molecule": "CC(C)C[C@H](NC(=O)[C@H](CC(=O)O)NC(=O)[C@H](CC(N)=O)NC(=O)[C@@H](NC(=O)[C@@H](NC(=O)[C@H](Cc1ccc(O)cc1)NCc1ccsc1)C(C)C)C(C)C)C(=O)O (H-[X3]VVNDL-OH)",
    "labelValue": "met"
  },
  {
    "molecule": "CC(C)C[C@H](NC(=O)[C@H](CC(=O)O)NC(=O)[C@H](CC(N)=O)NC(=O)[C@@H](NC(=O)[C@@H](NC(=O)C(Cc1ccc(O)cc1)Cc1ccc(O)cc1)C(C)C)C(C)C)C(=O)O",
    "labelValue": "not met"
  }
]
